- tested on: α-amylase
- test name: α-Amylase inhibition assay (DNS method)
- Assay type: biochemical
- Method: The degree of inhibition was assessed by quantifying maltose equivalents using a slightly modified dinitrosalicylic acid (DNS) method. From each of the sample dilutions, 1 mL was pre-incubated with 1 U/mL α-amylase for half an hour. After incubation, 1 mL of 1% of starch solution was added to the mixture and further incubated for 10 min. To stop the reaction, 1 mL DNS reagent was added to the reaction mixture and heated in a boiling water bath for 5 min. […] The absorbance was measured at 540 nm.
Structures can show the parent of a compound that is named as a salt.
readout label: α-Amylase IC50 (µg/mL)
Numbers only, in µg/mL.

// below: answered molecules
molecule="O=COC(O)O [Compound XI, methanetriol mano formate]" tested_on=α-amylase recorded_result=98
molecule="CC(C)C(C(=O)O)c1ccc(C(C(=O)O)C(C)C)cc1 (stereo not shown)" tested_on=α-amylase recorded_result=92
molecule="CC(C)CCCCC1CC2CC(C)(C)C3C4CC(C)(C)C5CC(O)CC(C)C5C4CC(C)C3C2C1 (stereo not shown)" tested_on=α-amylase recorded_result=122

Proceed to the following item.
Given item `CCCCCCCCCCCCCCCCCCCCCC(=O)O` , the value recorded as its α-Amylase IC50 is 125

----------
Kindly supply the reported Percent Inhibition of α-Amylase (Mean ± S.E.M) values for the records listed here.
- Tested on: α-amylase
- test name: α-Amylase inhibition assay (DNS method)
- Assay type: biochemical
- test parameters: 500 μg/mL, n = 3
Where a name gives a salt, the structure may show the parent alone.
One number for each entry, in %.

// below: answered molecules
molecule="CC(C)CCCCC1CC2CC(C)(C)C3C4CC(C)(C)C5CC(O)CC(C)C5C4CC(C)C3C2C1 (centres unmarked) [Compound IX]" recorded_result=65.13
molecule="CCCCCCCCCCCCCCCCCCCCCC(=O)O [Compound X, docosanoic acid]" recorded_result=65.19
molecule="CC(C)C(C(=O)O)c1ccc(C(C(=O)O)C(C)C)cc1 (centres unmarked) [Compound XII]" recorded_result=74.25
molecule="O=COC(O)O [Compound XI, methanetriol mano formate]" recorded_result=70.91

Given item C[C@H]1O[C@H](O[C@H]2[C@H](O)[C@@H](O)[C@@H](O[C@H]3[C@H](O)[C@@H](O)C(O)O[C@@H]3CO)O[C@@H]2CO)[C@H](O)[C@@H](O)[C@@H]1N[C@H]1C=C(CO)[C@@H](O)[C@H](O)[C@H]1O (some centres unmarked) [Acarbose, reference compound] , the value recorded as its Percent Inhibition of α-Amylase (Mean ± S.E.M) is 77.11

----------
- test name: DPPH free radical scavenging assay
- test parameters: 1000 μg/mL, n = 3
readout label: DPPH Percent Inhibition (Mean ± S.E.M) (%)
Give bare numbers, in %.

// below: answered molecules
molecule="CCCCCCCCCCCCCCCCCCCCCC(=O)O [Compound X, docosanoic acid]" readout_label="DPPH Percent Inhibition (Mean ± S.E.M)" recorded_result=78.81
molecule="O=C1O[C@H]([C@@H](O)CO)C(O)=C1O [Ascorbic Acid, reference compound]" readout_label="DPPH Percent Inhibition (Mean ± S.E.M)" recorded_result=94.14

Proceed to the following item.
Given item CC(C)C(C(=O)O)c1ccc(C(C(=O)O)C(C)C)cc1 (stereo not drawn) [Compound XII] , the value recorded as its DPPH Percent Inhibition (Mean ± S.E.M) is 86.54

Values were extracted from paper PMC8036409.
